Biological target: T1, Recombinant human PD-1 human-FC Chimera (R&D Systems) (human, UniProt Q15116 25-170)
T1 construct: Bought construct; also called recombinant human-PD-1 extracellular domain; hPD-1 (ELISA); not shown: human Fc part of the bought chimera
T1 sequence (Q15116 25-170, change not shown): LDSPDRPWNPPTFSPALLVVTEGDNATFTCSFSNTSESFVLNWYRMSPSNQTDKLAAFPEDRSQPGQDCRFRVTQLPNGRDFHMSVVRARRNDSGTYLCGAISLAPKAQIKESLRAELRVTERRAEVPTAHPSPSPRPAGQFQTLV
Assay: ELISA, coated recombinant human PD-1 human-Fc chimera

{"BINDER": "MAB-19-0618 (antibody, IgG1, V domains shown, Recombinant humanized hIgG1-LALA antibody) VH: QVQLVESGGGLVQPGTSLRLSCSVSGFSLYSYNMGWVRQAPGKGLEYIGIISGGTIGHYASWAKGRFTISRDTSKTTLYLQMNSLTTEDTATYFCARAFYDDYDYNVWGPGTLVTVSS VL: AIQLTQSPSSLSASVGGTVTITCQSSQSVYGNNQLSWYQQKPGQPPKLLIYQASKLETGVPSRFRGSGSGTQFTLTISSLQSEDFATYYCAGGYSSSSDTTFGGGTEVVVK", "EC50 / ng/mL": 8}
{"BINDER": "MAB-19-0202 (antibody, V domains shown, Chimeric rabbit/human antibody: rabbit variable regions cloned N-terminal of human IgG1 / kappa constant parts with L234A and L235A (LALA)) VH: QSVEESGGRLVTPGTPLTLTCTVSGFSLYSYNMGWVRQAPGKGLEYIGIISGGTIGHYASWAKGRFTISKTSSTTVDLKMTSLTTEDTATYFCARAFYDDYDYNVWGPGTLVTVSS VL: AAVLTQTPSPVSAAVGGTVTISCQSSQSVYGNNQLSWYQQKPGQPPKLLIYQASKLETGVPSRFKGSGSGTQFTLTISDLESDDAATYYCAGGYSSSSDTTFGGGTEVVVK", "EC50 / ng/mL": 4}
{"BINDER": "MAB-19-0598 (antibody, IgG1, V domains shown, Recombinant humanized hIgG1-LALA antibody) VH: QVQLVESGGDVVKPGRSLRLSCKASGIDFSSVYYMCWVRQAPGKGLEWIACIYVGSSGVSYYATWAKGRFTISRDTSTSTLFLQMNSLRAGDTATYYCARAGYVGAVYVTLTRLDLWGQGTLVTVSS VL: DIQMTQSPSSLSASVGGTVTITCQSSQSIYTNNDLAWYQQKPGQPPKLLIYDASKLASGVPSRFSGSGSGTQFTLTISSLQSEDAATYYCLGGYDDDADNAFGGGTEVVVK", "EC50 / ng/mL": 8.8}
